- Test system: P12-Ichikawa
- assay.procedure: cell viability relative to DMSO control; higher = less cytotoxic
- condition.info: RPMI 5 mM glucose + 10% dialyzed FBS; 48 h; 0.19 µM
outcome.measure: cell viability (%)
The reply should be a number in %, with the unit left off.

- compound: "CC(C)(OCc1nn(Cc2ccccc2)c2ccccc12)C(=O)O"
  cell viability / %: 84.6
- compound: "CCOC\\1=C(/C(=O)NC2=CC=C(OC3=C(Cl)C(=NC=C3)N)C(=C2)F)C(=O)N(\\C=C1)C4=CC=C(F)C=C4"
  cell viability / %: 91
- compound: "CCCCc1oc2ccccc2c1C(=O)c1cc(I)c(OCCN(CC)CC)c(I)c1"
  cell viability / %: 107

Entry O=P1(NCCCl)OCCCN1CCCl (stereo unspecified) has what cell viability?
82.7

Entry Cc1nc(C(=O)NCC(=O)O)c(O)c2ccc(Oc3ccccc3)cc12 has what cell viability?
98.8

Entry Clc1ccc(C(Cn2ccnc2)OCc2ccc(Sc3ccccc3)cc2)c(Cl)c1 (stereo unspecified) has what cell viability?
104

Entry CC(C)N(CCCNC(=O)Nc1ccc(C(C)(C)C)cc1)C[C@H]1O[C@@H](n2cc(Br)c3c(N)ncnc32)[C@H](O)[C@@H]1O has what cell viability?
88.6

Entry O=C(Nc1cccc2c(=O)cc(-c3nnn[nH]3)oc12)c1ccc(OCCCCc2ccccc2)cc1 has what cell viability?
92.5

====

- Tested on: P12-Ichikawa
- assay.procedure: cell viability relative to DMSO control; higher = less cytotoxic
- condition.info: RPMI 5 mM glucose + 10% FBS; 48 h; 0.00234 µM
outcome.measure: cell viability (%)
The reply should be a number in %, with the unit left off.

Examples with their reported cell viability follow.
- item.smiles: "O=C(/C=C/c1cccnc1)NCCCCC1CCN(C(=O)c2ccccc2)CC1"
  target.system: "P12-Ichikawa"
  cell viability, %: 109
- item.smiles: "NC(=O)[C@@H](CCC(F)(F)F)N(Cc1ccc(-c2ncon2)cc1F)[S+](=O)([O-])c1ccc(Cl)cc1"
  target.system: "P12-Ichikawa"
  cell viability, %: 95
- item.smiles: "Cc1n[nH]c(C)c1Cc1sc2c(c1C(=O)N1C[C@H](O)CO1)c(=O)n(C)c(=O)n2CC(C)C"
  target.system: "P12-Ichikawa"
  cell viability, %: 118

Below: the item to evaluate.
Entry CON(C)C(=O)N1\N=C(/S[C@]1(CCCN)C2=CC=CC=C2)C3=CC(=CC=C3F)F has what cell viability?
17.2

====

- Tested on: NOMO1
- assay.procedure: cell viability relative to DMSO control; higher = less cytotoxic
- condition.info: RPMI 5 mM glucose + 10% dialyzed FBS; 48 h; 0.00234 µM
outcome.measure: cell viability (%)
The reply should be a number in %, with the unit left off.

Examples with their reported cell viability follow.
- compound: "COC1=CC2=C(C=C1CC3=C(F)C(=CC=C3)Cl)C(=O)\\C(=C/N2[C@H](CO)C(C)C)C(O)=O"
  unit.annotation: "%"
  quantitative.readout: 118
- compound: "CC[P](CC)(CC)=[Au][S][C@@H]1O[C@H](COC(C)=O)[C@@H](OC(C)=O)[C@H](OC(C)=O)[C@H]1OC(C)=O"
  unit.annotation: "%"
  quantitative.readout: 125
- compound: "O=C(/C=C/c1cccnc1)NCCCCC1CCN(C(=O)c2ccccc2)CC1"
  unit.annotation: "%"
  quantitative.readout: 75.6
- compound: "O=C1N\\N=C(\\C[C@@H]2CCN(C2)C(=O)C3CC3)N1C4=CC=C(C=C4)C5=CC=C6OC=CC6=C5"
  unit.annotation: "%"
  quantitative.readout: 86.8
- compound: "COc1cc([C@@H]2c3cc4c(cc3[C@@H](O)C3COC(=O)C32)OCO4)cc(OC)c1O (stereo partly drawn)"
  unit.annotation: "%"
  quantitative.readout: 95.3
- compound: "CC(C)C[C@@H](C(=O)N[C@H](C(=O)OC1CCCC1)c1ccccc1)[C@H](O)C(=O)NO"
  unit.annotation: "%"
  quantitative.readout: 114
- compound: "NC/1=N/C(=O)C2=C([NH]C=C2CCC3=CC=C(C=C3)C(=O)N[C@@H](CCC(O)=O)C(O)=O)N1"
  unit.annotation: "%"
  quantitative.readout: 91.4

Below: the item to evaluate.
GET /values?readout=cell viability&system=NOMO1&item= Cc1nc(N)sc1-c1ccnc(Nc2ccc(N3CCOCC3)cc2)n1
112

====

Consider the following compounds and their measured AUC of viability dose-response curve readings.
- Test system: NOMO1
- assay.procedure: AUC of viability dose-response curve (% viability x log10 dose units); higher = less sensitive
- condition.info: RPMI 5 mM glucose + 10% dialyzed FBS; 48 h
Could you keep your reply to the number by itself?

Examples with their reported AUC of viability dose-response curve follow.
- compound: "CCN(CCO)CCCC(C)Nc1ccnc2cc(Cl)ccc12 (centres undefined)"
  target.system: "NOMO1"
  AUC of viability dose-response curve: 459
- compound: "CC(CCc1ccc(O)cc1)NCCc1ccc(O)c(O)c1 (centres undefined)"
  target.system: "NOMO1"
  AUC of viability dose-response curve: 452
- compound: "NCC/1=C/NC(=S)N1[C@H]2CCC3=C(F)C=C(F)C=C3C2"
  target.system: "NOMO1"
  AUC of viability dose-response curve: 466
- compound: "CC[P](CC)(CC)=[Au][S][C@@H]1O[C@H](COC(C)=O)[C@@H](OC(C)=O)[C@H](OC(C)=O)[C@H]1OC(C)=O"
  target.system: "NOMO1"
  AUC of viability dose-response curve: 354
- compound: "CN1C(=O)C(=C/2N(C(=O)N(C3CC3)C(=O)C2=C1/NC4=CC=C(I)C=C4F)C5=CC=CC(=C5)NC(C)=O)\\C"
  target.system: "NOMO1"
  AUC of viability dose-response curve: 255

Entry CC(=O)O/N=C1/C(=C2\C(=O)Nc3cc(Br)ccc32)Nc2ccccc21 has what AUC of viability dose-response curve?
443

Entry Oc1ccc(C2CNCCc3c2cc(O)c(O)c3Cl)cc1 (centres undefined) has what AUC of viability dose-response curve?
454

Entry C[C@@H](Oc1ccc2[nH]nc(/C=C/c3cnn(CCO)c3)c2c1)c1c(Cl)cncc1Cl has what AUC of viability dose-response curve?
381

Entry COC1=C(CC=C(C)C)C2=C(\C=C/C(=O)O2)C=C1 has what AUC of viability dose-response curve?
460

====

Consider the following molecules and their measured cell viability readings.
- Test system: NOMO1
- assay.procedure: cell viability relative to DMSO control; higher = less cytotoxic
- condition.info: RPMI 5 mM glucose + 10% dialyzed FBS; 48 h; 5.12 µM
The reply should be a number in %, with the unit left off.

- molecule: "Cc1ccnc(N[S+](=O)([O-])c2ccc(NC(=O)Nc3ccc([S+](=O)([O-])Nc4nccc(C)n4)cc3)cc2)n1"
  target.system: "NOMO1"
  unit.annotation: "%"
  cell viability: 5.66
- molecule: "O=C1CCc2cc(OCCCCc3nnnn3C3CCCCC3)ccc2N1"
  target.system: "NOMO1"
  unit.annotation: "%"
  cell viability: 109

Entry Oc1ccc(C2CNCCc3c2cc(O)c(O)c3Cl)cc1 (stereo not drawn) has what cell viability?
95.2

====

- Tested on: NOMO1
- assay.procedure: cell viability relative to DMSO control; higher = less cytotoxic
- condition.info: HPLM + 10% dialyzed FBS; 48 h; 0.00234 µM
outcome.measure: cell viability (%)
The reply should be a number in %, with the unit left off.

Examples with their reported cell viability follow.
- item.smiles: "CCC1=C2CN3C(=O)\\C4=C(/C=C3/C2=NC5=CC=C(O)C=C15)[C@@](O)(CC)C(=O)OC4"
  cell viability, %: 96
- item.smiles: "CC1(C)CCC(=C(\\C1)C2=CC=C(Cl)C=C2)/CN3CCN(CC3)C4=CC(=C(C=C4)C(=O)N[S+]([O-])(=O)C5=CC=C(NCC6CCOCC6)C(=C5)[N+]([O-])=O)OC7=CN=C8[NH]C=CC8=C7"
  cell viability, %: 110

Below: the item to evaluate.
Entry NC(=O)[C@@H](CCC(F)(F)F)N(Cc1ccc(-c2ncon2)cc1F)[S+](=O)([O-])c1ccc(Cl)cc1 has what cell viability?
106

====

- Test system: P12-Ichikawa
- assay.procedure: cell viability relative to DMSO control; higher = less cytotoxic
- condition.info: HPLM + 10% dialyzed FBS; 48 h; 15.4 µM
outcome.measure: cell viability (%)
The reply should be a number in %, with the unit left off.

Examples with their reported cell viability follow.
- compound: "CC1(C)CCC(=C(\\C1)C2=CC=C(Cl)C=C2)/CN3CCN(CC3)C4=CC(=C(C=C4)C(=O)N[S+]([O-])(=O)C5=CC=C(NCC6CCOCC6)C(=C5)[N+]([O-])=O)OC7=CN=C8[NH]C=CC8=C7"
  outcome.measure: "cell viability"
  quantitative.readout: 67
- compound: "COc1cc([C@@H]2c3cc4c(cc3[C@@H](O)C3COC(=O)C32)OCO4)cc(OC)c1O (some centres not stated)"
  outcome.measure: "cell viability"
  quantitative.readout: 5.25
- compound: "C[C@]12CCC(=O)C(O)=C1CC[C@@H]1[C@@H]2CC[C@]2(C)C(=O)CC[C@@H]12"
  outcome.measure: "cell viability"
  quantitative.readout: 111
- compound: "Cc1cc(-c2ccc(CC(=O)Nc3ccc(-c4cccnc4)cc3)cc2)ccn1"
  outcome.measure: "cell viability"
  quantitative.readout: 57.1
- compound: "COc1ccc(CC2SC(=O)NC2=O)cc1C(=O)NCc1ccc(C(F)(F)F)cc1 (configuration not stated)"
  outcome.measure: "cell viability"
  quantitative.readout: 83.6
- compound: "CCCCc1oc2ccccc2c1C(=O)c1cc(I)c(OCCN(CC)CC)c(I)c1"
  outcome.measure: "cell viability"
  quantitative.readout: 104
- compound: "O=C(Nc1ccncc1)C(=O)c1cn(Cc2ccc(Cl)cc2)c2ccccc12"
  outcome.measure: "cell viability"
  quantitative.readout: 35.2
- compound: "COc1ccc(-c2cc3c(C)nc(N)nc3n([C@H]3CC[C@H](OCCO)CC3)c2=O)cn1"
  outcome.measure: "cell viability"
  quantitative.readout: 63.5
- compound: "CCCCC(F)(F)[C@@]1(O)CC[C@H]2[C@@H](CC(=O)[C@@H]2CCCCCCC(=O)O)O1"
  outcome.measure: "cell viability"
  quantitative.readout: 111
- compound: "COC1=C(CC=C(C)C)C2=C(\\C=C/C(=O)O2)C=C1"
  outcome.measure: "cell viability"
  quantitative.readout: 65.7

Below: the item to evaluate.
Entry COC1=CC=CC(=C1/C2=N/CC3=C(N=C(NC4=CC(=C(C=C4)C(O)=O)OC)N=C3)C5=CC=C(Cl)C=C25)F has what cell viability?
18.2
